Activity: recorded values
# Test system: P19
# PROTOCOL TEXT: Induction of dendrite out growth in IL-4/GMCSF-stimulated mouse P19 cells assessed as dendrite length at 100 nM after 48 hrs by light microscopy
# Format: functional
REPORTED ENDPOINT: Activity

COMPOUND STRING	TARGET ENTITY	REPORTED ENDPOINT	RESULT
CC(C)CCC[C@@H](C)[C@H]1CC[C@H]2[C@@H]3C[C@@H](n4cnc(CCN)c4)[C@@]4(O)C[C@@H](O)CC[C@]4(C)[C@H]3CC[C@]12C	P19	Activity	<5 um
CC(C)CCC[C@@H](C)[C@H]1CC[C@H]2C3=C[C@@H](NCCCNCCCCNCCCN)[C@@]4(O)C[C@@H](O)CC[C@]4(C)[C@H]3CC[C@]12C	P19	Activity	10 um
